System: OVCAR-3 ovarian
protocol: NCI-60 one-dose screen, 48 h
experimental-context: 10 µM unless noted
Compounds without any hit were thinned out: in the full panel of roughly 83,000, 20% have a hit. Calls of active or inactive are those of the source. Rule for the calls: active = growth percent below 10; inactive = the rest.
Give one outcome, nothing more. List: TRUE (active), FALSE (inactive)

# outcome recorded in this test, key = COc1ccc(/C=C/C(=O)Nc2cccnc2Nc2ccc(F)cc2)cc1
FALSE

Another compound: CC(=O)c1cc(C(=O)c2ccc3c(c2)Sc2ccccc2N3)c2c(C)cc(C)cn12
TRUE

// repeat for O=C1C2C3C=CC(O3)C2C(=O)N1Nc1ccccc1 (stereo not given) and report
FALSE

Thanks! And CCOc1ccccc1C(=O)OCC(=O)Nc1cccc(S(=O)(=O)N(C)C)c1 ?
FALSE

Try this compound too: O=C(c1nn(-c2ccc(Cl)cc2)cc1O)n1nc(C(F)(F)F)cc1-c1ccccc1
TRUE

Try this compound too: O=C(NCCc1ccccc1)C1CCC(=O)N1Cc1ccc(Br)cc1 (stereo not given)
FALSE

Quick one: O=C1c2nsnc2C(=O)c2c(F)c(F)c(F)c(F)c21
TRUE

Then this compound: Cc1cc(NCCCNc2ccnc3cc(Cl)ccc23)nc(N2CCN(C)CC2)n1
FALSE

Would you kindly repeat that for COc1ccc(-c2nn(-c3ccccc3)cc2/C=C2\SC(=S)N(CCc3ccc(O)cc3)C2=O)cc1 ?
FALSE

What do you have for O=C(Nc1ccc(Cl)cc1)c1cc2c(cc1O)[nH]c1ccccc12 ?
TRUE
